Molecular target: T1, human CD19 antigen (human, UniProt P15391 20-291, limits assumed)
T1 sequence (looked up): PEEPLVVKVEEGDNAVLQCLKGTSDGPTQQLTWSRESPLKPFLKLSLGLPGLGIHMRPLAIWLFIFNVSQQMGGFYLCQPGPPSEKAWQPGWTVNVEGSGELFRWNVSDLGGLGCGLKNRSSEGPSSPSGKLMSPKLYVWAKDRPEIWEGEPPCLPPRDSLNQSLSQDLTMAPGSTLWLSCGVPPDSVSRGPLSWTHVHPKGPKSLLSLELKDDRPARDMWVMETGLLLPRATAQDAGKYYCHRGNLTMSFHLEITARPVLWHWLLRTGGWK
Assay: SPR (Biacore), antibody captured via Fc
Field: koff. Provide a value for each of the binders that follow.
Please answer in the form of a number followed by its unit of measurement.

What measured koff goes with humanized CD19 antibody VH3 + VL2 (antibody, V domains shown, also called Antibody No. 8) VH: QVQLQESGPGLVKPSQTLSLTCTVSGVSLPDYGVSWIRQPPGKGLEWIGVIWGSETTYYNSALKSRLTISKDTSKNQVSLKLSSVTAADTAVYYCAKHYYYGGSYAMDYWGQGTTVTVSS VL: DIQMTQSPSSLSASVGDRVTITCRASQDISKYLNWYQQKPGKAPKLLIYHTSRLHSGVPSRFSGSGSGTDYTFTISSLQPEDIATYYCQQGNTLPYTFGGGTKLEIK ? 0.000638 s⁻¹

Proceed to humanized CD19 antibody VH1 + VL1 (antibody, V domains shown, also called Antibody No. 1) VH: QVQLQESGPGLVKPSQTLSLTCTVSGVSLPDYGVSWIRQPPGKGLEWIGVIWGSETTYYNSALKSRVTISVDTSKNQFSLKLSSVTAADTAVYYCARHYYYGGSYAMDYWGQGTTVTVSS VL: DIQMTQSPSSLSASVGDRVTITCRASQDISKYLNWYQQKPGKAPKLLIYHTSRLHSGVPSRFSGSGSGTDFTFTISSLQPEDIATYYCQQGNTLPYTFGGGTKLEIK 0.00808 s⁻¹

Proceed to humanized CD19 antibody VH4 + VL1 (antibody, V domains shown, also called Antibody No. 10) VH: QVQLQESGPGLVKPSQTLSLTCTVSGVSLPDYGVSWIRQPPGKGLEWLGVIWGSETTYYNSALKSRLTISKDTSKNQVSLKLSSVTAADTAVYYCAKHYYYGGSYAMDYWGQGTTVTVSS VL: DIQMTQSPSSLSASVGDRVTITCRASQDISKYLNWYQQKPGKAPKLLIYHTSRLHSGVPSRFSGSGSGTDFTFTISSLQPEDIATYYCQQGNTLPYTFGGGTKLEIK 0.000584 s⁻¹

Proceed to humanized CD19 antibody VH5 + VL2 (antibody, V domains shown, also called Antibody No. 14) VH: QVQLQESGPGLVKPSQTLSVTCTVSGVSLPDYGVSWIRQPPGKGLEWLGVIWGSETTYYNSALKSRLTISKDTSKNQVSLKLSSLTAADTAVYYCAKHYYYGGSYAMDYWGQGTTVTVSS VL: DIQMTQSPSSLSASVGDRVTITCRASQDISKYLNWYQQKPGKAPKLLIYHTSRLHSGVPSRFSGSGSGTDYTFTISSLQPEDIATYYCQQGNTLPYTFGGGTKLEIK 0.0018 s⁻¹

Proceed to humanized CD19 antibody VH3 + VL3 (antibody, V domains shown, also called Antibody No. 9) VH: QVQLQESGPGLVKPSQTLSLTCTVSGVSLPDYGVSWIRQPPGKGLEWIGVIWGSETTYYNSALKSRLTISKDTSKNQVSLKLSSVTAADTAVYYCAKHYYYGGSYAMDYWGQGTTVTVSS VL: DIQMTQSPSSLSASVGDRVTITCRASQDISKYLNWYQQKPGKAPKLLIYHTSRLHSGVPSRFSGSGSGTDYTLTISSLQPEDIATYYCQQGNTLPYTFGGGTKLEIK 0.00159 s⁻¹

Values were extracted from patent US20230235052A1.
